# Target under test: HLA-A*02:01
# Method description: IEDB peptide-MHC binding, purified MHC/competitive/radioactivity; filed as Kd, often an IC50 or EC50 that approximates it; bounds were set here for any values at or beyond the usual limits of such assays
# Measurement parameters: source organism: Hepatitis B virus
Quantity measured: Kd (nM)
One number for each entry, in nM.

Input line: Give reported Kd value for FLPSDFFPSA
Output line: 23

---

# Target under test: HLA-B*48:01
# Method description: IEDB peptide-MHC binding, purified MHC/direct/fluorescence; filed as Kd, often an IC50 or EC50 that approximates it; bounds were set here for any values at or beyond the usual limits of such assays
# Measurement parameters: source organism: dengue virus type 2
Quantity measured: Kd

Input line: Using known records, supply Kd for KQLGQVMLL
Output line: 6.2 nM

Where these numbers come from: the Immune Epitope Database (IEDB)
